Target: hM5 (Homo sapiens, UniProt P08912)
Construct: expressed in transfected cells
Assay: Calcium mobilization concentration-response (IC50 vs EC80 acetylcholine), CHO hM5
Format: cell-based
Conditions: CELL LINE hM5; calcium mobilization, EC80 acetylcholine addition; read-out: IC50
assay_endpoint: IC50 (µM)
Write down the numeric answer in µM and omit the unit.

[[record]]
molecule = "Cc1c(C2=CCN(S(=O)(=O)c3cnn(C)c3C)CC2)cn2ncnc2c1Cl [Compound 380]"
test_system = "hM5 (Homo sapiens, UniProt P08912)"
value_observed = 0.037


Shifting focus to the molecule that follows.
Input line: Param readout= IC50; system= hM5 (Homo sapiens, UniProt P08912); entry= Cc1nc(C(F)(F)F)c(S(=O)(=O)N2CCC(c3cn4ncnc4cc3C)CC2)s1 [Compound 129] ; returns value.
Output line: 3.8

---

Target: hM5 (Homo sapiens, UniProt P08912)
Construct: expressed in transfected cells
Sequence (P08912 1-532): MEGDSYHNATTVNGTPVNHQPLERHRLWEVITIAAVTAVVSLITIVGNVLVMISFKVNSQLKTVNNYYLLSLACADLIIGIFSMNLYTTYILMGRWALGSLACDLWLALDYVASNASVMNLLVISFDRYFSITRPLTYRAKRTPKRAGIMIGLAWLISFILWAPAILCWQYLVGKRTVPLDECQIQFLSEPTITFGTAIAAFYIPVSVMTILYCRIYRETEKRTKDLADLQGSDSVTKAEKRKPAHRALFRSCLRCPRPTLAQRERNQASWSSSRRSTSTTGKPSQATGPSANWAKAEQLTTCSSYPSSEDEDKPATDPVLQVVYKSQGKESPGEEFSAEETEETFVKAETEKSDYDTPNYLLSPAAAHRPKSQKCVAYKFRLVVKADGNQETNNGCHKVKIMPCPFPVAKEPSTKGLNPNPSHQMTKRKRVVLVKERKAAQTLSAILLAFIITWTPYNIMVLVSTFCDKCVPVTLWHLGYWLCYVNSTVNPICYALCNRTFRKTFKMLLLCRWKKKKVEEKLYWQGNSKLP
Assay: Calcium mobilization concentration-response (IC50 vs EC80 acetylcholine), CHO hM5
Format: cell-based
Conditions: CELL LINE hM5; calcium mobilization, EC80 acetylcholine addition; read-out: IC50
assay_endpoint: IC50 (nM)
Record the value in nM, omitting the unit from your answer.

[[record]]
compound = "Cc1cc2ncnn2nc1C1CCN(S(=O)(=O)c2cnc(C)n2C)CC1 [Compound 216]"
test_system = "hM5 (Homo sapiens, UniProt P08912)"
value_observed = 689

[[record]]
compound = "[2H]C([2H])([2H])n1ncc(S(=O)(=O)N2CCC(c3cn4ncnc4cc3C)CC2)c1C1CC1 [Compound 131]"
test_system = "hM5 (Homo sapiens, UniProt P08912)"
value_observed = 28


Input line: Lookup: IC50 / hM5 (Homo sapiens, UniProt P08912) / Cc1cc2nccnc2cc1C1=CCN(S(=O)(=O)c2cnn(C)c2C)CC1 [Compound 354]
Output line: 64

Input line: Query the reported IC50 for hM5 (Homo sapiens, UniProt P08912); item: O=S(=O)(c1ccc2c(c1)CCO2)N1CCC(c2cn3ncnc3cc2C(F)(F)F)CC1 [Compound 109]
Output line: 746

Input line: Provide value of IC50 for this record tested with hM5 (Homo sapiens, UniProt P08912): Cc1cc2nccn2nc1C1CCN(S(=O)(=O)c2cnn(C(F)F)c2C)CC1 [Compound 312]
Output line: 877

Input line: Lookup: IC50 / hM5 (Homo sapiens, UniProt P08912) / O=S(=O)(c1cnn2c1CCCC2)N1CCC(c2cn3ncnc3cc2Cl)CC1 [Compound 283]
Output line: 7.3

Input line: Given the entry [2H]C([2H])([2H])n1cc(S(=O)(=O)N2CCC(c3cn4ncnc4cc3C)CC2)c(Cl)n1 [Compound 256] , what IC50 was observed with hM5 (Homo sapiens, UniProt P08912)?
Output line: 53
